Entry source: paper PMC6153800

Experiment: in vitro
Conditions: CD-1, mouse, microsomes, pH 7.4
readout label: microsomal CLint (µL/min/mg)
Numbers only; they are read as µL/min/mg.

Give its microsomal CLint value. Item: NC(=O)N1c2ccccc2C=Cc2ccccc21 [Carbamazepine, reference compound]
0.6

---

Assay: Water solubility, shake flask method
Assay type: physicochemical
Details: 25 °C, water, thermodynamic from solid
readout label: log10(solubility at 3 days) (log10 of the value in µg/mL)
Values below are the log10 of the recorded solubility at 3 days, with µg/mL as the unit.

Worked examples, 3 molecules total:
INSERT INTO assay_data (smiles_notation, readout_label, value_reported) VALUES
  ('CCS(=O)(=O)N1CCN(c2nc(=O)c3cc(C(F)(F)F)cc([N+](=O)[O-])c3s2)CC1', 'log10(solubility at 3 days)', 1.03),
  ('O=c1nc(N2CCN(S(=O)(=O)C3CC3)CC2)sc2c([N+](=O)[O-])cc(C(F)(F)F)cc12', 'log10(solubility at 3 days)', 0.93),
  ('CCCCS(=O)(=O)N1CCN(c2nc(=O)c3cc(C(F)(F)F)cc([N+](=O)[O-])c3s2)CC1', 'log10(solubility at 3 days)', -0.98);

Give its log10(solubility at 3 days) value. Item: `O=c1nc(N2CCN(S(=O)(=O)c3cccc4cnccc34)CC2)sc2c([N+](=O)[O-])cc(C(F)(F)F)cc12`
-1.06

Give its log10(solubility at 3 days) value. Item: `CS(=O)(=O)N1CCN(c2nc(=O)c3cc(C(F)(F)F)cc([N+](=O)[O-])c3s2)CC1`
1.03

---

readout label: melting point

Worked examples, 5 molecules total:
INSERT INTO assay_data (smiles_notation, value_reported) VALUES
  ('CC(=O)c1ccc(S(=O)(=O)N2CCN(c3nc(=O)c4cc(C(F)(F)F)cc([N+](=O)[O-])c4s3)CC2)cc1', '280 to 282 °C'),
  ('O=c1nc(N2CCN(S(=O)(=O)c3cccc4cnccc34)CC2)sc2c([N+](=O)[O-])cc(C(F)(F)F)cc12', '243 to 245 °C'),
  ('CCCCS(=O)(=O)N1CCN(c2nc(=O)c3cc(C(F)(F)F)cc([N+](=O)[O-])c3s2)CC1', '215 to 219 °C'),
  ('CCS(=O)(=O)N1CCN(c2nc(=O)c3cc(C(F)(F)F)cc([N+](=O)[O-])c3s2)CC1', '204 to 207 °C'),
  ('Cc1nn(C)cc1S(=O)(=O)N1CCN(c2nc(=O)c3cc(C(F)(F)F)cc([N+](=O)[O-])c3s2)CC1', '200 to 203 °C');

Give its melting point value. Item: `O=c1nc(N2CCN(S(=O)(=O)c3cccs3)CC2)sc2c([N+](=O)[O-])cc(C(F)(F)F)cc12`
210 to 214 °C

Give its melting point value. Item: `O=c1nc(N2CCN(S(=O)(=O)C3CC3)CC2)sc2c([N+](=O)[O-])cc(C(F)(F)F)cc12`
201 to 204 °C

Give its melting point value. Item: `O=c1nc(N2CCN(S(=O)(=O)c3cc(Cl)c(Cl)s3)CC2)sc2c([N+](=O)[O-])cc(C(F)(F)F)cc12`
265 to 267 °C

Give its melting point value. Item: `COC(=O)c1sccc1S(=O)(=O)N1CCN(c2nc(=O)c3cc(C(F)(F)F)cc([N+](=O)[O-])c3s2)CC1`
127 to 129 °C

Give its melting point value. Item: `CCn1cc(S(=O)(=O)N2CCN(c3nc(=O)c4cc(C(F)(F)F)cc([N+](=O)[O-])c4s3)CC2)c(C)n1`
218 to 220 °C

Give its melting point value. Item: `Cc1noc(C)c1S(=O)(=O)N1CCN(c2nc(=O)c3cc(C(F)(F)F)cc([N+](=O)[O-])c3s2)CC1`
265 to 267 °C

---

Experiment: in vitro
Settings: CD-1, mouse, microsomes, pH 7.4
Would you mind labelling by microsomal CLint at 1 μg/ml? At or over 20 µL/min/mg is 1, under is -1.

These recorded examples may help you get a feel for the data.
INSERT INTO results (compound, category_label) VALUES
  ('CCCCS(=O)(=O)N1CCN(c2nc(=O)c3cc(C(F)(F)F)cc([N+](=O)[O-])c3s2)CC1 [compound 11626093]', 1),
  ('O=c1nc(N2CCN(S(=O)(=O)C3CCCCC3)CC2)sc2c([N+](=O)[O-])cc(C(F)(F)F)cc12 [compound 11326127]', -1),
  ('CS(=O)(=O)N1CCN(c2nc(=O)c3cc(C(F)(F)F)cc([N+](=O)[O-])c3s2)CC1 [compound 11626095]', -1),
  ('O=c1nc(N2CCN(S(=O)(=O)C3CC3)CC2)sc2c([N+](=O)[O-])cc(C(F)(F)F)cc12 [compound 11626091]', -1),
  ('O=c1nc(N2CCN(S(=O)(=O)c3cccs3)CC2)sc2c([N+](=O)[O-])cc(C(F)(F)F)cc12 [compound 11326059]', -1),
  ('O=c1nc(N2CCN(S(=O)(=O)c3cccc4cnccc34)CC2)sc2c([N+](=O)[O-])cc(C(F)(F)F)cc12 [compound 11626094]', 1);

For the next question, use this compound.
Is the recorded value of microsomal CLint at 1 μg/ml equal to or greater than 20 µL/min/mg for this compound? CCS(=O)(=O)N1CCN(c2nc(=O)c3cc(C(F)(F)F)cc([N+](=O)[O-])c3s2)CC1 [compound 11626092]
-1

---

Experiment: in vitro
Settings: human, microsomes, pH 7.4
readout label: microsomal CLint (µL/min/mg)
Numbers only; they are read as µL/min/mg.

Give its microsomal CLint value. Item: NC(=O)N1c2ccccc2C=Cc2ccccc21 [Carbamazepine, reference compound]
0.4

---

Test: in vitro
Settings: human, microsomes, pH 7.4
readout label: microsomal CLint at 1 μg/ml (µL/min/mg)
Numbers only; they are read as µL/min/mg.

Worked examples, 6 compounds total:
INSERT INTO results (smiles_notation, value_reported) VALUES
  ('O=c1nc(N2CCN(S(=O)(=O)C3CC3)CC2)sc2c([N+](=O)[O-])cc(C(F)(F)F)cc12', 9.7),
  ('O=c1nc(N2CCN(S(=O)(=O)c3cccc4cnccc34)CC2)sc2c([N+](=O)[O-])cc(C(F)(F)F)cc12', 277),
  ('O=c1nc(N2CCN(S(=O)(=O)c3cccs3)CC2)sc2c([N+](=O)[O-])cc(C(F)(F)F)cc12', 16.8),
  ('CCS(=O)(=O)N1CCN(c2nc(=O)c3cc(C(F)(F)F)cc([N+](=O)[O-])c3s2)CC1', 1.4),
  ('CS(=O)(=O)N1CCN(c2nc(=O)c3cc(C(F)(F)F)cc([N+](=O)[O-])c3s2)CC1', 1),
  ('O=c1nc(N2CCN(S(=O)(=O)C3CCCCC3)CC2)sc2c([N+](=O)[O-])cc(C(F)(F)F)cc12', 21.5);

Give its microsomal CLint at 1 μg/ml value. Item: `CCCCS(=O)(=O)N1CCN(c2nc(=O)c3cc(C(F)(F)F)cc([N+](=O)[O-])c3s2)CC1`
6.4

---

System: HepG2 cells
Details: HepG2 cells, 3 days
Measured TD50 accompanies every entry in the list below.
Numbers only; they are read as µg/mL.

Worked examples, 6 compounds total:
INSERT INTO results (compound, experimental_system, value_reported) VALUES
  ('O=c1nc(N2CCN(S(=O)(=O)c3cccc4cnccc34)CC2)sc2c([N+](=O)[O-])cc(C(F)(F)F)cc12 [compound 11626094]', 'HepG2 cells', 100.00),
  ('CCS(=O)(=O)N1CCN(c2nc(=O)c3cc(C(F)(F)F)cc([N+](=O)[O-])c3s2)CC1 [compound 11626092]', 'HepG2 cells', 8.90),
  ('CS(=O)(=O)N1CCN(c2nc(=O)c3cc(C(F)(F)F)cc([N+](=O)[O-])c3s2)CC1 [compound 11626095]', 'HepG2 cells', 7.80),
  ('CO[C@H]1/C=C/O[C@@]2(C)Oc3c(C)c(O)c4c(O)c(c(/C=N/N5CCN(C)CC5)c(O)c4c3C2=O)NC(=O)/C(C)=C\C=C\[C@H](C)[C@H](O)[C@@H](C)[C@@H](O)[C@@H](C)[C@H](OC(C)=O)[C@@H]1C [Rifampin, reference compound]', 'HepG2 cells', 100.00),
  ('O=c1nc(N2CCN(S(=O)(=O)C3CC3)CC2)sc2c([N+](=O)[O-])cc(C(F)(F)F)cc12 [compound 11626091]', 'HepG2 cells', 8.10),
  ('O=c1nc(N2CCN(CC3CCCCC3)CC2)sc2c([N+](=O)[O-])cc(C(F)(F)F)cc12 [PBTZ169, macozinone, reference compound]', 'HepG2 cells', 44.00);

Give HepG2 cells TD50 for O=c1nc(N2CCN(S(=O)(=O)c3cccs3)CC2)sc2c([N+](=O)[O-])cc(C(F)(F)F)cc12 [compound 11326059]
100
